measurement-target: fluorescent H3K4me3 peptide
test-method-notes: fluorescence polarisation; increasing concentrations of TAF3 PHD finger with fluorescent H3K4me3 peptide, with a 5-fold molar excess of PI5P; apparent KD
readout-label: Kd (µM)
Numbers only, in µM.

Which value of Kd has been reported for GST-TAF3 PHD finger, wild type (domain or fragment, modifications not checked) IWICPGCNKPDDGSPMIGCDDCDDWYHWPCVGIMTAPPEEMQWFCPKCANKKKDKKHKKRKHRAH in the records?
3.5
